- assayed_system: SNX27, Q96L92
- procedure_summary: holdup assay
- Design: key: below the threshold = too weak to quantify, mostly under pKd 3.1 to 4
- condition_context: plain residues with an end cap or a label only (N-terminal biotin on a linker: ahx)
measured_endpoint: pKd

ADENEQVSAV [RAPGEF6, Q8TEU7] :: 5.07
SAPATLSSRA [PDLIM2, Q96JY6] :: below the threshold
SKKNELFSNL [NHERF1, O14745] :: below the threshold
